Item-by-item account of concentration at 48 h
test summary: Residual lipid level in liver of rats (UPLC-MS quantification)
Format: in vivo
condition notes: rat, liver, iv, 0.2 mg/kg, intravenous, 0.2 mpk, 48 hours, read-out: Liver level

| compound | concentration at 48 h [ng/g] |
| --- | --- |
| CCCCCC=CCC=CCCCCCCCCC(CCCCCCCCC=CCC=CCCCCC)OC(=O)CCCN(C)C (stereo not shown) [MC3, reference compound] | 11300 |
| CCCCCCCCC(CCC)OC(=O)CCCCCCCN(CCO)CCCCCCCC(=O)OC(CCCCCCCC)CCCCCCCC (stereo not shown) [Compound 50] | 5820 |
| CCCCCCCCC(CC)OC(=O)CCCCCCCN(CCO)CCCCCCCC(=O)OC(CCCCCCCC)CCCCCCCC (stereo not shown) [Compound 49] | 6490 |
| CCCCCCCCC(C)OC(=O)CCCCCCCN(CCO)CCCCCCCC(=O)OC(CCCCCCCC)CCCCCCCC (stereo not shown) [Compound 48] | 5450 |

* * *

test summary: Residual lipid level in spleen of rats (UPLC-MS quantification)
Type: in vivo
condition notes: 0.2 mg/kg, rat, intravenous, 0.2 mpk, 0.25 h

| structure string | concentration at 0.25 h (ng/g) |
| --- | --- |
| CCCCCCCCCOC(=O)CCCCCCCN(CCO)CCCCCCCC(=O)OC(CCCCCCCC)CCCCCCCC | 1230 |

* * *

test summary: Residual lipid level in liver of rats (UPLC-MS quantification)
Format: in vivo
condition notes: rat, liver, iv, 0.2 mg/kg, 0.2 mpk, 0.25 h
Reported concentration at 0.25 h values follow for various compounds
property: concentration at 0.25 h (ng/g)

| compound | property | unit tag | meas value |
| --- | --- | --- | --- |
| CCCCCCCCCCCOC(=O)CCCCCN(CCO)CCCCCCCC(=O)OC(CCCCCCCC)CCCCCCCC [Compound 25] | concentration at 0.25 h | ng/g | 12000 |
| CCCCCC=CCC=CCCCCCCCCC(CCCCCCCCC=CCC=CCCCCC)OC(=O)CCCN(C)C (centres unmarked) [MC3, reference compound] | concentration at 0.25 h | ng/g | 13200 |

* * *

test summary: Residual lipid level in liver of rats (UPLC-MS quantification)
Assay type: in vivo
condition notes: rat, liver, iv, 0.2 mg/kg, 0.2 mpk, 24 h
Quick reference: concentration at 24 h of the listed items.

| molecule | concentration at 24 h, ng/g |
| --- | --- |
| CCCCCC=CCC=CCCCCCCCCC(CCCCCCCCC=CCC=CCCCCC)OC(=O)CCCN(C)C (centres unmarked) [MC3, reference compound] | 33000 |
| CCCCCCCCCCCOC(=O)CCCCCN(CCO)CCCCCCCC(=O)OC(CCCCCCCC)CCCCCCCC | 199 |

* * *

test summary: Residual lipid level in liver of rats (UPLC-MS quantification)
Assay type: in vivo
condition notes: rat, liver, intravenous, 0.2 mg/kg, 0.2 mpk, 48 h, average of 3 rats, read-out: Liver level
property: concentration at 48 h (ng/g)

| compound | meas value |
| --- | --- |
| CCCCCCCCC(CCCCCCCC)OC(=O)CCCCCCCN(CCO)CCCC(=O)OCCCCCC | 4810 |
| CCCCCC=CCC=CCCCCCCCCC(CCCCCCCCC=CCC=CCCCCC)OC(=O)CCCN(C)C (stereo not shown) [MC3, reference compound] | 25000 |
| CCCCCCCCC(CCCCCCCC)OC(=O)CCCCCCCN(CCO)CCCC(=O)OCCCCCCC | 6070 |
| CCCCCCCCC(CCCCCCCC)OC(=O)CCCCCCCN(CCO)CCCCCCCC(=O)OCC1CC1CCCCCC (stereo not shown) | 49.6 |
